assay: PFAS levels in serum samples of airport employees (LC/MS/MS); details: 5th sampling (January 2019), count 16
quantity_measured: Serum PFAS level, Max
The answer should be written as a number, with no unit following it.

| structure | observed_measurement |
| --- | --- |
| O=S(=O)(O)C(F)(F)C(F)(F)C(F)(F)C(F)(F)C(F)(F)F | 13 |
| O=S(=O)(O)C(F)(F)C(F)(F)C(F)(F)C(F)(F)C(F)(F)C(F)(F)F | 399 |

Please examine the following record next.
Input: Give reported Serum PFAS level, Max value for "O=C(O)C(F)(F)C(F)(F)C(F)(F)C(F)(F)C(F)(F)C(F)(F)F"
Output: 1.4

* * *

experiment: Individual serum elimination rate and half-life (linear regression per employee); conditions: human, serum, oral, HL (half-life), individual estimate, subject 2, 5 samples
# half-life listing for each entry below
Supply the numeric figure in days, leaving out any unit text.

Input: Answer with reported half-life of "O=C(O)C(F)(F)C(F)(F)C(F)(F)C(F)(F)C(F)(F)C(F)(F)C(F)(F)F"
Output: 1060

Input: For the compound "O=C(O)C(F)(F)C(F)(F)C(F)(F)C(F)(F)C(F)(F)C(F)(F)F" , report half-life.
Output: 73

Input: Return half-life (reported value) for this compound: "O=S(=O)(O)C(F)(F)C(F)(F)C(F)(F)C(F)(F)C(F)(F)C(F)(F)F"
Output: 730

* * *

experiment: PFAS levels in urine samples of airport employees, specific-gravity adjusted (LC/MS/MS); format: in vivo, human; settings: 4th sampling (December 2018), count 14
Measured Specific gravity adjusted urinary level, Min of individual entries
// units = ng/mL; emit number, no label

Some molecules with recorded Specific gravity adjusted urinary level, Min:
| structure | observed_measurement |
| --- | --- |
| O=S(=O)(O)C(F)(F)C(F)(F)C(F)(F)C(F)(F)C(F)(F)F | 0.03 |
| O=C(O)C(F)(F)C(F)(F)C(F)(F)C(F)(F)C(F)(F)C(F)(F)C(F)(F)F | 0.01 |

Input: Give recorded Specific gravity adjusted urinary level, Min. "O=S(=O)(O)C(F)(F)C(F)(F)C(F)(F)C(F)(F)C(F)(F)C(F)(F)F"
Output: 0.04

* * *

experiment: PFAS levels in urine samples of airport employees, specific-gravity adjusted (LC/MS/MS); assay type: in vivo, human; conditions: 5th sampling (January 2019), count 12
quantity_measured: Specific gravity adjusted urinary level, Median (ng/mL)
// note: answer is a bare numeric in ng/mL

Check out these entries, answers already filled in.
| molecule | display_unit | observed_measurement |
| --- | --- | --- |
| O=C(O)C(F)(F)C(F)(F)C(F)(F)C(F)(F)C(F)(F)C(F)(F)C(F)(F)F [PFOA, perfluorooctanoic acid] | ng/mL | 0.03 |
| O=S(=O)(O)C(F)(F)C(F)(F)C(F)(F)C(F)(F)C(F)(F)C(F)(F)F [PFHxS, perfluorohexane sulfonic acid] | ng/mL | 0.08 |
| O=S(=O)(O)C(F)(F)C(F)(F)C(F)(F)C(F)(F)C(F)(F)F [PFPeS, perfluoropentane sulfonic acid] | ng/mL | 0.07 |

Proceed to the following item.
Input: Give the value of Specific gravity adjusted urinary level, Median reported for the following: O=C(O)C(F)(F)C(F)(F)C(F)(F)C(F)(F)C(F)(F)C(F)(F)F [PFHpA, perfluoroheptanoic acid]
Output: 0.02
